System: UACC-62
Test: NCI tumour cell line growth inhibition, 48 h
The source made the active and inactive calls. No stated cut-off is given here; in the data, active = GI50 up to about 1.1 µM and inactive = higher.
Hi there, use one of these labels in your reply, thanks! yes (1) = active, no (0) = inactive

{"columns": ["compound", "classification"],
 "data": [
  ["N#CCCSC1SC(=C2SC3=C(SCCS3)S2)SC1SCCC#N (centres undefined)", "no (0)"]
]}

## Input Field: outcome | Entry: "O=c1oc2ccc(Cl)cc2cc1-c1cn2cc(Cl)ccc2n1"
## Output yes (1)

## Input Next entry: "Cc1c(C)c2c(c(N)c1C#N)C(=O)N(NC(=S)Nc1ccccc1)C2=O"
## Output no (0)

## Input Next entry: CC1CC2OC(=O)C3CC(O)CC(=C23)[C@@]12C[C@@H](c1ccoc1)OC2=O (some centres undefined)
## Output no (0)
